target-desc: human Gal-1 (hGal-1) (Homo sapiens)
Sequence (P09382 whole entry): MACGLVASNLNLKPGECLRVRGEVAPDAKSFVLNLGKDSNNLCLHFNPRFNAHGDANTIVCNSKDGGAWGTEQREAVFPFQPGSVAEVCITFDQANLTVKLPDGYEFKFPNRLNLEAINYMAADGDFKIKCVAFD
pIC50: −log10 of the molar value.
Please use 1 whenever pIC50 is not below 6, and 0 whenever it is.

Q) Exam item: decide whether the reported pIC50 for CC1CN(C(=O)[C@@H](S[C@@H]2O[C@H](CO)[C@H](O)[C@H](n3cc(-c4cc(F)c(F)c(F)c4)nn3)[C@H]2O)C2(O)CCOCC2)C1 [Example 2.41.205S.] is at least 6.
A) 1

Q) # bool: pIC50 of CN(C)C(=O)C(S[C@@H]1O[C@H](CO)[C@H](O)[C@H](n2cc(-c3cc(F)c(F)c(F)c3)nn2)[C@H]1O)C1(O)CCC(F)(F)CC1 (single isomer, unassigned) [Example 2.44.201S.] >= 6
A) 1

Q) In plain terms: is recorded pIC50 at least 6 for CCN(C)C(=O)C(S[C@@H]1O[C@H](CO)[C@H](O)[C@H](n2cc(-c3cc(F)c(Cl)c(F)c3)nn2)[C@H]1O)C1(O)CCOCC1 (some centres unmarked) [Example 11.41.203.] ?
A) 1

Q) Given the entry CN(CC1CC1)C(=O)[C@H](S[C@@H]1O[C@H](CO)[C@H](O)[C@H](n2cc(-c3cc(F)c(F)c(F)c3)nn2)[C@H]1O)C1(O)CCC(F)(F)CC1 [Example 2.44.218R.] , answer whether its pIC50 meets or surpasses 6.
A) 0

Q) Determine whether this compound has pIC50 no lower than 6: CO[C@@H]1[C@@H](n2cc(-c3cc(F)c(F)c(F)c3)nn2)[C@@H](O)[C@@H](CO)O[C@H]1SC(C(=O)N1CCC(F)(F)CC1)C1(O)CCC2(CCOCC2)CC1 (some centres unmarked) [Example 2.72.226.I.]
A) 1

Q) Please indicate if the recorded pIC50 for CC(C)CN(C)C(=O)C(S[C@@H]1O[C@H](CO)[C@H](O)[C@H](n2cc(-c3cc(F)c(F)c(F)c3)nn2)[C@H]1O)C1(O)CCOCC1 (some centres unmarked) [Example 2.41.200.] meets or exceeds 6.
A) 1

Q) Form field: pIC50 at least 6? Entry: CN(C(=O)C(S[C@@H]1O[C@H](CO)[C@H](O)[C@H](n2cc(-c3cc(F)c(F)c(F)c3)nn2)[C@H]1O)C1(O)CCOCC1)c1ccccc1 (some centres unmarked) [Example 2.41.231.]
A) 1

====

target-desc: biotinylated human Gal-3 (hGal-3) (Homo sapiens)
Sequence (P17931 whole entry): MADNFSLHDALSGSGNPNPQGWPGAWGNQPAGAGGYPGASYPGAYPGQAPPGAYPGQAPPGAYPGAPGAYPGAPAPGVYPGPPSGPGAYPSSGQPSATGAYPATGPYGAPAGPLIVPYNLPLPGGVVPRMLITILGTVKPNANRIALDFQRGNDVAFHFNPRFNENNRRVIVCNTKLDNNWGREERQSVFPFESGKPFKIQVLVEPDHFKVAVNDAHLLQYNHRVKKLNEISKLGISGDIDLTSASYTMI
assay-summary: Competitive binding assay: biotinylated hGal-3 binding to microplate-adsorbed asialofetuin (ASF), spectrophotometric
condition-notes: Table 11; hGal-3; read-out: IC50 (Gal-3 inhibition)
endpoint-label: IC50 (nM)
Provide the reading as a plain figure in nM.

Reference set, count: 2
Cc1cc(-c2cn([C@H]3[C@@H](O)[C@@H](CO)O[C@@H](S[C@@H](C(=O)N(C)C4CC4)C4(O)CCC(F)(F)CC4)[C@@H]3O)nn2)cnc1F [Example 21.44.221R] :: 230
CCN(C)C(=O)C(S[C@@H]1O[C@H](CO)[C@H](O)[C@H](n2cc(-c3ccc(F)c(F)c3)nn2)[C@H]1O)C1(O)CCOCC1 (stereo partly drawn) :: 60

API: the following record is the query input.
IC50 for biotinylated human Gal-3 (hGal-3) (Homo sapiens) with input CCN(C)C(=O)C(S[C@@H]1O[C@H](CO)[C@H](O)[C@H](n2cc(-c3cc(C)cc(F)c3)nn2)[C@H]1O)C1(O)CCOCC1 (stereo partly drawn) equals 60
